meta.source: patent US9346815B2

- Tested on: JAK1-dependent STAT6 phosphorylation downstream of IL-13 stimulation in BEAS-2B human bronchial epithelial cells
- Test description: JAK1 pathway assay in BEAS-2B cells (IL-13-pSTAT6, MSD)
- Assay type: cell-based
- Condition details: read-out: IL13-pSTAT6 EC50 (uM)_BEAS-2B
- Procedure: JAK1 Pathway Assay in Cell Lines was Carried Out as Follows: Inhibitor potency (EC50) was determined in cell-based assays designed to measure JAK1 dependent STAT phosphorylation. […] Test compounds were serially diluted 1:2 in DMSO and then diluted 1:50 in medium just before use. […] Then, cells were stimulated with human recombinant cytokine at their respective EC90 concentrations, as previously determined for each individual lot. […]
Response field label: string, one of true (1) (EC50 strictly below 0.03 µM) or false (0).

>>> label_value("COC(=O)C1CCN(CCN2CCN(C(=O)Cn3cc(NC(=O)c4cnn5cccnc45)c(-c4cc(Cl)ccc4OC(F)F)n3)CC2)CC1 [Example 333]")
"true (1)"
>>> label_value("CN1CCN(C2CCN(C(=O)Cn3cc(NC(=O)c4cnn5cccnc45)c(-c4cc(Cl)ccc4OC(F)F)n3)CC2)C(=O)C1 [Example 448]")
"false (0)"
>>> label_value("O=C(Nc1cn(CC(=O)N2CCC(N3CCSCC3)CC2)nc1-c1cc(Cl)ccc1OC(F)F)c1cnn2cccnc12 [Example 434]")
"true (1)"
>>> label_value("CN1CCN(C(=O)Cn2cc(NC(=O)c3cnn4cccnc34)c(-c3cc(Cl)ccc3OC(F)F)n2)C[C@H]1CO [Example 235]")
"false (0)"
>>> label_value("CN(CC(C)(C)C#N)C1CCN(C(=O)Cn2cc(NC(=O)c3cnn4cccnc34)c(-c3cc(Cl)ccc3OC(F)F)n2)CC1 [Example 465]")
"true (1)"
>>> label_value("C[C@H](NCCn1cc(NC(=O)c2cnn3cccnc23)c(-c2cc(Cl)ccc2OC(F)F)n1)c1ccccc1 [Example 385]")
"false (0)"
>>> label_value("CC1(CN(CCC(F)(F)F)C2CCN(C(=O)Cn3cc(NC(=O)c4cnn5cccnc45)c(-c4cc(Cl)ccc4OC(F)F)n3)CC2)COC1 [Example 117]")
"false (0)"
>>> label_value("O=C(Nc1cn(C/C=C/CN2CCOCC2)nc1-c1cc(Cl)ccc1OC(F)F)c1cnn2cccnc12 [Example 394]")
"false (0)"
>>> label_value("CN(C)CCOC(=O)C1(C)CCN(C(=O)Cn2cc(NC(=O)c3cnn4cccnc34)c(-c3cc(Cl)ccc3OC(F)F)n2)CC1 [Example 340]")
"true (1)"
>>> label_value("CC1(O)CCN(C(=O)Cn2cc(NC(=O)c3cnn4cccnc34)c(-c3cc(Cl)ccc3OC(F)F)n2)CC1 [Example 280]")
"true (1)"

Input line: Decide: EC50 of CN(C)C1CCN(C(=O)Cn2cc(NC(=O)c3cnn4cccnc34)c(-c3cc(Cl)ccc3OC(F)F)n2)CC1 [Example 67] strictly below 0.03 µM?
Output line: false (0)

Input line: Decide: EC50 of CN(CCC#N)C1CCN(c2nc(-c3cc(Cl)ccc3OC(F)F)c(NC(=O)c3cnn4cccnc34)s2)CC1 [Example 189] strictly below 0.03 µM?
Output line: true (1)

Input line: Decide: EC50 of O=C(Nc1cn(CC(=O)N2CCOCC2)nc1-c1cc(Cl)ccc1OC(F)F)c1cnn2cccnc12 [Example 288] strictly below 0.03 µM?
Output line: false (0)

Input line: Decide: EC50 of O=C(Nc1cn(CC(=O)N2CCC(C(=O)OCCN3CCOCC3)CC2)nc1-c1cc(Cl)ccc1OC(F)F)c1cnn2cccnc12 [Example 336] strictly below 0.03 µM?
Output line: true (1)

Input line: Decide: EC50 of O=C(Nc1cn(CC(=O)N2CCN(CCO)CC2)nc1-c1cc(Cl)ccc1OC(F)F)c1cnn2cccnc12 [Example 228] strictly below 0.03 µM?
Output line: false (0)

Input line: Decide: EC50 of CN1CCN(C(=O)Cn2cc(NC(=O)c3cnn4cccnc34)c(-c3cc(Cl)ccc3OC(F)F)n2)CC1 [Example 227] strictly below 0.03 µM?
Output line: true (1)

Input line: Decide: EC50 of O=C1CC(N2CCN(C(=O)Cn3cc(NC(=O)c4cnn5cccnc45)c(-c4cc(Cl)ccc4OC(F)F)n3)CC2)CO1 (stereo not drawn) [Example 392] strictly below 0.03 µM?
Output line: true (1)

Input line: Decide: EC50 of O=C(Nc1cn(CCNCc2cccc(O)c2)nc1-c1cc(Cl)ccc1OC(F)F)c1cnn2cccnc12 [Example 327] strictly below 0.03 µM?
Output line: true (1)
